B1: FAM189A2 (parent)
chain: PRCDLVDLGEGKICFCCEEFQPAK

variants of: B1; experiment: protein stability index of a GFP-peptide fusion (GPS, HEK-293T) (PSI 1-6); higher = more stable; details: c terminus: a fixed tail appended;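 also: lentivirally expressed fusions sorted by FACS into six bins by GFP to DsRed ratio, PSI derived from sequencing read proportions per bin multiplied by bin number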
protein stability index values by entry
Provide a numeric answer; units are not to be included.

PRCDLVDLGEGKINFCCEEFQPAK [C14N] :: 4.56
PRCDLYDLGEGKICFCCEEFQPAK [V6Y] :: 2.73
PRCDLVDLGEGKPCFCCEEFQPAK [I13P] :: 3.41
PRCDLVDLGELKICFCCEEFQPAK [G11L] :: 1.95

# query: protein stability index of entry PRCDLVDLGTGKICFCCEEFQPAK [E10T] 2.75

Data credit: the supplement of paper PMC10567573
